Test: Pharmacokinetic study in rats after single intravenous administration
Format: in vivo
Settings: male, Sprague-Dawley, rat, plasma, single intravenous 5 mg/kg, n = 6
Protocol: The applicability of the developed bioanalytical LC-MS/MS method was evaluated by quantitative determination of 1 D in rat plasma after single intravenous administration. […] The pharmacokinetic parameters including area under the concentration-time curve (AUC), apparent volume of distribution (Vz), elimination half-life (t1/2), and clearance (CLz) were calculated by a non-compartmental analysis method using the DAS 3.0.2 pharmacokinetic programme. […]
recorded.endpoint: Tmax (min)

{"columns": ["smi", "test.value"],
 "data": [
  ["Br.COc1ccc(/C=C/c2cc(/C=C/c3ccc(OC)cc3)nc(OCCCCSC(=N)N)n2)cc1", 4.8]
]}
